- assayed.target: Ribonuclease A (RNase A) (Bos taurus)
- Construct: gene RNASE1
- experiment.notes: X-ray cocrystal structure (soaking); FRET inhibition assay (Ki); […] NMR titration
- Assay type: biochemical
pKi: −log10 of the molar value.

{"sample.smiles": "O=c1ccn([C@@H]2O[C@H](COP(=O)(O)OP(=O)(O)OP(=O)(O)OP(=O)(O)OP(=O)(O)OP(=O)(O)O)[C@@H](O)[C@H]2O)c(=O)[nH]1", "pKi": 5.96}
{"sample.smiles": "O=c1ccn([C@H]2O[C@@H](COP(=O)(O)OP(=O)(O)OP(=O)(O)OP(=O)(O)OP(=O)(O)OP(=O)(O)OP(=O)(O)O)[C@@H](O)[C@H]2O)c(=O)[nH]1", "pKi": 6.00}

###

- assayed.target: Ribonuclease A (RNase A) (Bos taurus)
- Construct: gene RNASE1
- Sequence (P61823 27-150): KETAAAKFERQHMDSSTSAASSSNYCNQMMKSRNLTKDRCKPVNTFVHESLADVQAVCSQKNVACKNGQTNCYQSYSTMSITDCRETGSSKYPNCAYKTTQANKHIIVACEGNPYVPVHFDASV
- experiment.notes: X-ray cocrystal structure; RNase A inhibition assay (Ki)
- Assay type: biochemical
Below, each of the compounds is paired with its reported Ki value.

{"sample.smiles": "Nc1ncnc2c1ncn2[C@@H]1O[C@H](COP(=O)(O)OP(=O)(O)OP(=O)(O)OP(=O)(O)OP(=O)(O)OP(=O)(O)O)[C@@H](O)[C@H]1O", "Ki (µM)": 3.6}
{"sample.smiles": "Nc1ncnc2c1ncn2[C@@H]1O[C@H](COP(=O)(O)OP(=O)(O)OP(=O)(O)OP(=O)(O)OP(=O)(O)OP(=O)(O)OP(=O)(O)O)[C@@H](O)[C@H]1O", "Ki (µM)": 2.6}
